Reported Kd is given for each of the following binders.
Biological target: T1, human CD3 on T-cell lines (CD3-expressing Jurkat cells; HUT78 cells) (human, UniProt P07766 23-207)
T1 construct: On cells it stands in the CD3/TCR complex
T1 sequence (P07766 23-207 limits assumed): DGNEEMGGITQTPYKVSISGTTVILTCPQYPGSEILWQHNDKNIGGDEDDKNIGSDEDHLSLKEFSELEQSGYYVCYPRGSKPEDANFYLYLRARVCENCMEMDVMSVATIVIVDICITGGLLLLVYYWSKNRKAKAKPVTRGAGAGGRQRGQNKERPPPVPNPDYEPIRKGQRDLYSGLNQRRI
Assay: flow cytometry, HUT78 cells
Reply numerically in nM, unit not repeated.

2037-B10_Hc-F27D (antibody, human IgG1, lambda, V domains shown, human IgG1, lambda; also called SRP 2037 F27D; 2037-B10_VH-F27D) VH: EVQLVESGGGLVKPGGSLRLSCAASGDTFNKYAMNWVRQAPGKGLEWVARIRTKYNNYATYYADSVKDRFTISRDDSKNTAYLQMNSLKTEDTAVYYCVRHGNFGNSYISYWAYWGQGTPVTVSS VL: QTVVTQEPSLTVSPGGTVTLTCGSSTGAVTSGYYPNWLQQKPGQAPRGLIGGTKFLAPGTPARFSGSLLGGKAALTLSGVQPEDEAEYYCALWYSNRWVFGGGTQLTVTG
1.27
2037-B10_Hc-Y55D (antibody, human IgG1, lambda, V domains shown, human IgG1, lambda; also called SRP 2037 Y55D; 2037-B10_VH-Y55D) VH: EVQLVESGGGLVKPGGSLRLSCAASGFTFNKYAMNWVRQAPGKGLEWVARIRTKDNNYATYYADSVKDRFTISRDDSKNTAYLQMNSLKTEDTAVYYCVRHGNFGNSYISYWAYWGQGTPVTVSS VL: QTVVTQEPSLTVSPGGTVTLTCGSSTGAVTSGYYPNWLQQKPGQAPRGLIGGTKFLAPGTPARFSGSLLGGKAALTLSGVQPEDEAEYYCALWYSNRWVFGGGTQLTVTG
0.27

Let's switch to this binder now.
Challenge: Query (binder): 2037-B10_Hc-K31D (antibody, human IgG1, lambda, V domains shown, human IgG1, lambda; also called SRP 2037 K31D; 2037-B10_VH-K31D) VH: EVQLVESGGGLVKPGGSLRLSCAASGFTFNDYAMNWVRQAPGKGLEWVARIRTKYNNYATYYADSVKDRFTISRDDSKNTAYLQMNSLKTEDTAVYYCVRHGNFGNSYISYWAYWGQGTPVTVSS VL: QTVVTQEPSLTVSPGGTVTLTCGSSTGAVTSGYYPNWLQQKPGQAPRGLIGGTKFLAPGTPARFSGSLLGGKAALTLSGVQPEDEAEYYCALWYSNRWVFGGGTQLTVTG ; field requested: Kd
Response given: 0.94
